# Measurement Target: gastrin receptor (Rattus norvegicus, UniProt P30553)
# Construct: The stomach was excised and flushed with ca. 1 ml of unbuffered physiological saline solution; from tissue; host or cells: isolated whole stomach of immature rats (ca. 21 days old)
# Sequence (P30553 whole entry): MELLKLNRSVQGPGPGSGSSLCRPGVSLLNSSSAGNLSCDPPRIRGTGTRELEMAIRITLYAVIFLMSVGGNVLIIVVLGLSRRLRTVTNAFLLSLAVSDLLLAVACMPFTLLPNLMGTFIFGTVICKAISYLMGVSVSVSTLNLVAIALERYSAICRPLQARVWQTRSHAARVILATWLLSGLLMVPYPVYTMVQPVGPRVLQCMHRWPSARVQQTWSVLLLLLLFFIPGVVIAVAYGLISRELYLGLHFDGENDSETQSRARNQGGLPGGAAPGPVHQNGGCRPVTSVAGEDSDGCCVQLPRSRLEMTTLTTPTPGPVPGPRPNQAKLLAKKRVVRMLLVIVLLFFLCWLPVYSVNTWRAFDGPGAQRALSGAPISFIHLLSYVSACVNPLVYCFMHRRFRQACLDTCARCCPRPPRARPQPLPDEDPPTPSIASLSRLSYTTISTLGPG
# Experiment: gastrin antagonist activity in immature rat stomach assay (pentagastrin dose-response, acid secretion)
# Conditions: isolated immature rat stomach, cumulative pentagastrin dose-response curves, read-out: Gastrin pKb (converted)
Measure: Kb (nM)

Recorded results for 4 compounds are shown here.
Cc1ccccc1-c1nc(C(=O)Nc2cccc(C(=O)O)c2)c(CCC2CCCCC2)[nH]1 = 20
CCCC(CCC)c1nc(C(=O)Nc2ccc(C)c(C(=O)O)c2)c(CCC23CC4CC(CC(C4)C2)C3)[nH]1 = 15.8
CC12CC3CC(C)(C1)CC(CCc1[nH]c(C4CCCCC4)nc1C(=O)Nc1cccc(C(=O)O)c1)(C3)C2 = 204
O=C(O)c1cccc(NC(=O)c2nc(-c3c(Cl)cccc3Cl)[nH]c2COC23CC4CC(CC(C4)C2)C3)c1 = 8.71

P. O=C(O)c1cccc(NC(=O)c2[nH]c(C34CCC(CC3)CC4)nc2CCC23CC4CC(CC(C4)C2)C3)c1
Q. O=C(O)CNS(=O)(=O)c1cccc(NC(=O)c2nc(C3CCCCC3)[nH]c2CCC23CC4CC(CC(C4)C2)C3)c1
R. CC(C)(C)Cc1nc(C(=O)Nc2cccc(C(=O)O)c2)c(CCC23CC4CC(CC(C4)C2)C3)[nH]1
# ascending order, key=Kb Lab note: final answer is the ordered label list.
P, R, Q
(P: 2.45 nM, R: 41.7 nM, Q: 224 nM)

I. O=C(O)c1cccc(NC(=O)c2nc(C3C4CCC3CC4)[nH]c2COC23CC4CC(CC(C4)C2)C3)c1 (stereo not drawn)
II. O=C(O)c1cc(NC(=O)c2cc(-c3ccc4ccccc4c3)[nH]c2CC23CC4CC(CC(C4)C2)C3)cc(C(=O)O)c1
Could you please tell me which of these two has the higher Kb: I or II ? Mark your selection by writing its label.
II
(II: 1620 nM, I: 1.38 nM)

I. CN(C)c1cccc(-c2nc(C(=O)Nc3cccc(C(=O)O)c3)c(CCC34CC5CC(CC(C5)C3)C4)[nH]2)c1
II. O=C(O)c1cccc(NC(=O)c2nc(-c3ccccc3C(F)(F)F)[nH]c2CCC23CC4CC(CC(C4)C2)C3)c1
Please state the entry with greater Kb among I and II . State your choice using its label.
I
(I: 794 nM, II: 18.2 nM)

====

# Measurement Target: CCKB receptor (Mus musculus, UniProt P56481)
# Construct: The whole brains from male mice (CD1 22-25 g; Charles River) were removed; from tissue; host or cells: cerebral cortex membranes of male CD1 mice
# Sequence (P56481 whole entry): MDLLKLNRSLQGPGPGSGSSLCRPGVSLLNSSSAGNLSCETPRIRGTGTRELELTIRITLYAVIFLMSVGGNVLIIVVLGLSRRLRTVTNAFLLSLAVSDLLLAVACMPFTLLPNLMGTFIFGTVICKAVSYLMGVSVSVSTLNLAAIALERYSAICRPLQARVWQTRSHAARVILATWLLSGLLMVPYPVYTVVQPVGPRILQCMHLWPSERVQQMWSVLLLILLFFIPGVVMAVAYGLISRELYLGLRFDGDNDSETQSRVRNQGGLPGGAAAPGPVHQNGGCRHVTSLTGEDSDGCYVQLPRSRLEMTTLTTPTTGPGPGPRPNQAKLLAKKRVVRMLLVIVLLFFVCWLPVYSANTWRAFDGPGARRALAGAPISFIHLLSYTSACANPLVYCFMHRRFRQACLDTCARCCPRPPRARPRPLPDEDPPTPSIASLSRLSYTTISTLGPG
# Experiment: CCKB receptor radioligand binding assay in mouse cortical membranes
# Conditions: [125I]-CCK8(S) 200 pM, 150 min at 21±3°, read-out: CCKB pKi (converted)
Measure: Ki (nM)

a. Cc1ccc(NC(=O)c2nc(-c3ccccn3)[nH]c2CCC23CC4CC(CC(C4)C2)C3)cc1C(=O)O
b. O=C(O)c1ccccc1NC(=O)c1cc(-c2ccccc2)[nH]c1CC12CC3CC(CC(C3)C1)C2
Given a and given b , which shows the smaller recorded Ki? Give the chosen item's label as your response.
a
(a: 40.7 nM, b: 832 nM)

P. O=C(O)c1cccc(NC(=O)c2nc(C3CCCCC3)[nH]c2COC23CC4CC(CC(C4)C2)C3)c1
Q. COc1cccc(-c2nc(C(=O)Nc3cc(C(=O)O)cc(C(=O)O)c3)c(CC3CCCCCC3)[nH]2)c1
R. Cc1ccccc1-c1nc(C(=O)Nc2cccc(C(=O)O)c2)c(CCC2CCCCC2)[nH]1
S. Cc1ccc(NC(=O)c2nc(C3CCCCC3)[nH]c2COC23CC4CC(CC(C4)C2)C3)cc1C(=O)O
Sequence the entries by Ki, beginning with the highest number. The response must list the labels following the requested ordering.
Q, R, P, S
